Tested on: Pseudomonas aeruginosa (Pae, PAWT, ATCC #27853)
Assay: MIC against Pseudomonas aeruginosa reference strain PAWT
Assay type: cell-based
Conditions: ATCC27853; Pseudomonas aeruginosa wild type PAWT
From the text: For evaluation of efficacy, we assembled panels of representative gram-negative pathogens, including Pseudomonas aeruginosa (Pae, PAWT, ATCC #27853), Klebsiella pneumoniae (Kpn, KPWT, ATCC #700603), Acinetobacter baumannii (Aba, ABWT, ATCC #BAA-747) and Escherichia coli (Eco, ECWT, ATCC #25922). These reference strains are useful indicator organisms to characterize compound activity against bacteria from a pathogenic genus in the absence of multiple resistance mechanisms. […]
Can you tell me MIC for the items I'm about to list?

Can you look up the measured MIC of CN[C@@H]1[C@H](O)[C@H](NC)[C@H]2O[C@@]3(O)C(=O)C[C@@H](C)O[C@H]3O[C@@H]2[C@H]1O for me? > 64 µg/mL

Can you look up the measured MIC of NCC[C@H](O)C(=O)N[C@@H]1C[C@H](N)[C@@H](O[C@H]2O[C@H](CN)[C@@H](O)[C@H](O)[C@H]2O)[C@H](O)[C@H]1O[C@H]1O[C@H](CO)[C@@H](O)[C@H](N)[C@H]1O for me? 1 to 2 µg/mL

Can you look up the measured MIC of NC[C@@H]1CC[C@@H](N)[C@@H](O[C@H]2[C@H](O)[C@@H](O[C@H]3O[C@H](CO)[C@@H](O)[C@H](N)[C@H]3O)[C@H](N)C[C@@H]2N)O1 for me? 0.25 to 0.5 µg/mL

Ref: patent US8586552B2
